Form field: melting point (one value per entry).
// units = °C; emit number, no label

Consider the following illustrative entries.
CS(=O)(=O)c1cncc(O[C@@H]2SC[C@@H](O)[C@H](O)[C@H]2O)c1    183
CC(=O)O[C@@H]1[C@@H](OC(C)=O)[C@H](OC(C)=O)CS[C@H]1Oc1cncc(S(C)(=O)=O)c1    193
O=S(=O)(c1ccccc1)c1cncc(O[C@@H]2SC[C@@H](O)[C@H](O)[C@H]2O)c1    86
O[C@@H]1[C@@H](O)[C@H](Oc2cnccc2-c2ccc(F)cc2)SC[C@H]1O    219
COc1cccc(-c2cncc(O[C@@H]3SC[C@@H](O)[C@H](O)[C@H]3O)c2)c1    200

// melting point lookup, compound = `O[C@@H]1[C@@H](O)[C@H](Oc2cncc(-c3ccc(F)cc3F)c2)SC[C@H]1O` , result: 221

###

assay-metric: melting point

O[C@@H]1[C@@H](O)[C@H](Oc2cccnc2-c2ccccc2)SC[C@H]1O [Example 24]    89 to 108 °C
O[C@@H]1[C@@H](O)[C@H](Oc2cncc(-c3ccc(F)cc3Cl)c2)SC[C@H]1O [Example 89]    208 to 211 °C
N#Cc1ccc(-c2cncc(O[C@@H]3SC[C@@H](O)[C@H](O)[C@H]3O)c2)cc1Cl    202 to 204 °C

Then there is this compound:
// melting point lookup, compound = N#Cc1cc(F)ccc1-c1cncc(O[C@@H]2SC[C@@H](O)[C@H](O)[C@H]2O)c1 [Example 148] , result: 198 to 200 °C
